- assay-target: T1, AAV8 (adeno-associated virus 8)
- T1 construct: also called adeno-associated virus serotype 8
- assay-text: SPR, AAV amine-coupled to CM5 chip;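 note: nanobodies flowed as analyte at seven concentrations spanning 1–100 nM over immobilized AAV (500–800 RU), kinetic constants derived by fitting the binding curves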
Each record here notes measured kon.
Dear colleague, please return just the value in M⁻¹ s⁻¹, with no unit written.

INSERT INTO measurements (binder, property_label, unit_tag, measurement) VALUES
  ('A4-093 (VHH) VHH: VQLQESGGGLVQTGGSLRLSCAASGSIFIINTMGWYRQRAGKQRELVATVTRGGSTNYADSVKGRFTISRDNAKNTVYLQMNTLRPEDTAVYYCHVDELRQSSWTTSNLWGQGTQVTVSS', 'kon', 'M⁻¹ s⁻¹', 166000),
  ('A4-054 (VHH) VHH: VQLQESGGGLVQPGGSLRLSCAASGSAFSINTMGWYRQAPGKQRELVAAVTRGGSTNYADSVKGRFTISRDNAKNTVYLQMNSLRPEDTAVYYCHVDEVRQSSWTTSNLWGQGTQVTVSS', 'kon', 'M⁻¹ s⁻¹', 4890),
  ('A4-087 (VHH) VHH: VQLQESGGGLVQPGGSLRLSCAASGSRFSLNTMGWYRQAPGKQRELVAAVTRGGNTNYGDFVKGRFTISRDNAKNTVYLQMNSLRPEDTAVYYCHVDELRESSWTTSNLWGQGTQVTVSS', 'kon', 'M⁻¹ s⁻¹', 115000);

The record that follows has no kon shown yet.
Find the recorded kon belonging to A4-090 (VHH) VHH: VQLQESGGGLVQPGGSLRLSCVASGSRFIINTMGWYRQAPGKQRELVATFTRGGNTNYAESVKGRFTISRDNGKSTVYLQMNSLRPEDTAVYYCHVDEVRESTWTTSNLWGQGTQVTVSS and report it. 75300
